target: hIAPP (human islet amyloid polypeptide) (Homo sapiens); construct: gene IAPP; mature peptide of 37 residues (34-70 of the precursor, recalled), bought from KareBay Biochem; aggregating peptide, monomer to fibril; assay: thioflavin-T fluorescence, disaggregation of preformed aggregates; assay type: biochemical; settings: read-out: EC50 (Aβ/hIAPP, μM) ^a
Sequence (P10997 34-70): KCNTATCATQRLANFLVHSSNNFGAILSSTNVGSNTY
Rule: EC50 below 10 µM gives met. Equal to or above 10 µM gives not met.

| compound | label-class |
| --- | --- |
| O=C(O[C@@H]1Cc2c(O)cc(O)cc2O[C@@H]1c1cc(O)c(O)c(O)c1)c1cc(O)c(O)c(O)c1 [EGCG, reference compound] | met |
| Oc1cc(O)c2c(c1)O[C@H](c1ccc(O)c(O)c1)[C@H](O)C2 [compound 8, (−)-epicatechin] | not met |
| COc1cc(OC)c2c(c1)O[C@@]1(c3ccc(OC)c(OC)c3)Oc3cc(OC)c4c(c3[C@@H]2[C@H]1O)O[C@H](c1ccc(OC)c(OC)c1)[C@H](O)C4 | not met |
| Oc1cc(O)c2c(c1)O[C@@]1(c3ccc(O)c(O)c3)Oc3cc4c(c(O)c3[C@@H]2[C@H]1O)C[C@@H](O)[C@@H](c1ccc(O)c(O)c1)O4 | met |
| Oc1cc(O)c2c(c1)O[C@@]1(c3ccc(O)c(O)c3)Oc3cc(O)c4c(c3[C@@H]2[C@H]1O)O[C@H](c1ccc(O)c(O)c1)[C@H](O)C4 | met |
| Oc1cc(O)c2c(c1)O[C@@]1(c3ccc(O)c(O)c3)Oc3c4c(cc(O)c3[C@@H]2[C@H]1O)O[C@H](c1ccc(O)c(O)c1)[C@H](O)C4 | not met |
